Where do the numbers come from? From paper PMC6152791.

Test system: HUVECs
Assay: In vitro VEGF-induced tube formation assay (Kurabo angiogenesis kit)
Assay type: cell-based, human
Settings: Homo sapiens, HUVEC, 264 h; VEGF 10 ng/mL, 11 days; read-out: IC50 of Tube Area
Assign IC50 to each entry below.
Reply with just the number (in nM).

Task item: Please report the measured IC50 for CCN(CC)CCNC(=O)c1c(C)[nH]c(/C=C2\C(=O)Nc3ccc(F)cc32)c1C [Sunitinib, sunitinib, reference compound]
Reply: 387

Task item: For the compound CCN(CC)CCN1Cc2[nH]c(/C=C3\C(=O)Nc4ccc(F)cc43)c(C)c2C1=O , give its reported IC50.
Reply: 367

Task item: Read the entry CCN(CC)CCN1Cc2[nH]c(/C=C3\C(=O)Nc4ccc(Cl)cc43)c(C)c2C1=O and write its reported IC50.
Reply: 299

Task item: State its IC50: CCN(CC)CCN1Cc2[nH]c(/C=C3\C(=O)Nc4ccc(I)cc43)c(C)c2C1=O
Reply: 313

Task item: Supply reported IC50 belonging to this compound: CCN(CC)CCN1Cc2[nH]c(/C=C3\C(=O)Nc4ccc(Br)cc43)c(C)c2C1=O
Reply: 179

Task item: Supply IC50 value. Item: CCN(CC)CCN1Cc2[nH]c(/C=C3\C(=O)Nc4ccccc43)c(C)c2C1=O
Reply: 310
